Biological target: PRC2 containing wt EZH2 (Homo sapiens (Human), UniProt Q15910)
Sequence (Q15910 whole entry): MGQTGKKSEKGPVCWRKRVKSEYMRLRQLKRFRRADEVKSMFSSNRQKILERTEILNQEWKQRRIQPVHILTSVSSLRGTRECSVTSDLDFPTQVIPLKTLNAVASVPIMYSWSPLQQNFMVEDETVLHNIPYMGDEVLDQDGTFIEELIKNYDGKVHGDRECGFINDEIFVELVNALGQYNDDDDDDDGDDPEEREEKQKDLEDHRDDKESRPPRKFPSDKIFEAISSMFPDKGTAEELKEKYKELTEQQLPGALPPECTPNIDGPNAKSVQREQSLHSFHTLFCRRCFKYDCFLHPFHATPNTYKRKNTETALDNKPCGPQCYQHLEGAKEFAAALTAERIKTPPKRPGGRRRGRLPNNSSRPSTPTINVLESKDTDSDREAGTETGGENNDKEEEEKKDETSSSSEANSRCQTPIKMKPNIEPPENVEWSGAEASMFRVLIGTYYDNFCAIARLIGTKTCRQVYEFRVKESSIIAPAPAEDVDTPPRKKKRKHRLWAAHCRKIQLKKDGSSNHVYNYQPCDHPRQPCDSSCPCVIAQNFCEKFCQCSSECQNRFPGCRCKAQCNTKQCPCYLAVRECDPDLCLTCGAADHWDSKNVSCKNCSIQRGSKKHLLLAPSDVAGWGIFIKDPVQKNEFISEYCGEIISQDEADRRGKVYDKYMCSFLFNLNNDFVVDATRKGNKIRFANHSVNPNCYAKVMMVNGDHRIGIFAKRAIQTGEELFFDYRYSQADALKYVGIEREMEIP
Sequence (O75530 whole entry partner): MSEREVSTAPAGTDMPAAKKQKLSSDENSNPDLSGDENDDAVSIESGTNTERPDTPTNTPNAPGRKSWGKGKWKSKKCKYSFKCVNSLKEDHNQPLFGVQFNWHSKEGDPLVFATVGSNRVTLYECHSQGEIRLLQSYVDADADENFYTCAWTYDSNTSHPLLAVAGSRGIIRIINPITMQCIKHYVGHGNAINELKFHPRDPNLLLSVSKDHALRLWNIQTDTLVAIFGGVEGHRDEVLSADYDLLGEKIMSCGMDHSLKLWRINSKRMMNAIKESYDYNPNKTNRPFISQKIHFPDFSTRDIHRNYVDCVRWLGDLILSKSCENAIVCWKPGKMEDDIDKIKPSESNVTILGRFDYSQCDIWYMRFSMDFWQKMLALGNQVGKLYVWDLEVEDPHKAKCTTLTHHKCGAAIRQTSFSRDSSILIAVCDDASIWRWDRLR
Sequence (Q15022 whole entry partner): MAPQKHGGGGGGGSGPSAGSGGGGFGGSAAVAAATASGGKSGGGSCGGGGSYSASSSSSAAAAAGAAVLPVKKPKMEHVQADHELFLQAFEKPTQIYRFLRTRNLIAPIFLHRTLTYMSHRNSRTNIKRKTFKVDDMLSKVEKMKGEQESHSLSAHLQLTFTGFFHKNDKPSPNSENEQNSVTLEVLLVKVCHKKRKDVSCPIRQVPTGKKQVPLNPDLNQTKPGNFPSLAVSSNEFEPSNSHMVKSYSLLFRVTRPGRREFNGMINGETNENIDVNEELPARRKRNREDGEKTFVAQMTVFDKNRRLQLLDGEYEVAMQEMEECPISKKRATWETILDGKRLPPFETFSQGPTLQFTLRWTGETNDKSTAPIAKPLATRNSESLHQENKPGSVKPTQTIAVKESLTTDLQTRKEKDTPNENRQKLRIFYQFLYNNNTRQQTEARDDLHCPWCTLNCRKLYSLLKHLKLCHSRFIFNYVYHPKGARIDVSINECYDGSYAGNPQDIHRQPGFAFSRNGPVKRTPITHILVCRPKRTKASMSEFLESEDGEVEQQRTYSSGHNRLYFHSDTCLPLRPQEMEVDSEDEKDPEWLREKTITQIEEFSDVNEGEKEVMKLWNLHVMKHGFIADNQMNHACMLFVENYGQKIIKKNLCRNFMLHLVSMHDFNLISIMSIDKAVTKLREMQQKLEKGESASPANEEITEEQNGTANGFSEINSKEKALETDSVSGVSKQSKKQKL
Sequence (Q09028 whole entry partner): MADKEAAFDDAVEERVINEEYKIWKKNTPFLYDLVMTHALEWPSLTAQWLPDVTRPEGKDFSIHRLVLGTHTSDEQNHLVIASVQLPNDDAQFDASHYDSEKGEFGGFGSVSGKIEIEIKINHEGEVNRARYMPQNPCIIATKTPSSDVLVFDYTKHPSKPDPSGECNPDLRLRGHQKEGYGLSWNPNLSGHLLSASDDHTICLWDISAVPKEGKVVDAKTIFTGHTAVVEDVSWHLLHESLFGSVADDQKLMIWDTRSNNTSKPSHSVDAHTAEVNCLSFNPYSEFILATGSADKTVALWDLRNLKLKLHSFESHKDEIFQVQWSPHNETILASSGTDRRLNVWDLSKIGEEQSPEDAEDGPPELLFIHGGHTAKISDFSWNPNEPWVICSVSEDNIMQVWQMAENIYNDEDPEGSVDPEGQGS
Sequence (Q6ZN18 whole entry partner): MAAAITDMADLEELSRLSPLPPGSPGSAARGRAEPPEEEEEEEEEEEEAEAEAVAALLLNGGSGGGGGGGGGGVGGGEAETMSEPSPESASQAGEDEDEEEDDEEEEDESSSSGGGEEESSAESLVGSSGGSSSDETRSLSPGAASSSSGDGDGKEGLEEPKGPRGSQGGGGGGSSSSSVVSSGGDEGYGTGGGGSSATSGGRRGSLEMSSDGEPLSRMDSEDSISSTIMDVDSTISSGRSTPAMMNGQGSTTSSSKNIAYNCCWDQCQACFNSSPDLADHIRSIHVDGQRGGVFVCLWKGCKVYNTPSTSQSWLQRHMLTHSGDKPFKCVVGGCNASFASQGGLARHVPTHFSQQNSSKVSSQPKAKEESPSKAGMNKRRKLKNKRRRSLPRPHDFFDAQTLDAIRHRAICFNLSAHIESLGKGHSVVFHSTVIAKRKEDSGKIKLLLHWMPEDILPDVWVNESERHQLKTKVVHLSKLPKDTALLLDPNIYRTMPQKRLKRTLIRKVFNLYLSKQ
Test: EZH2 biochemical assay (IC50), 3H-SAM incorporation into biotinylated H3 peptide
Conditions: EZH2 (IC50), 30 pM PRC2 containing wt EZH2; 3-5 h pre-incubation
readout_name: IC50

INSERT INTO assay_data (compound, result) VALUES
  ('CSc1cc(C)[nH]c(=O)c1CNC(=O)c1c(C)n([C@H](C)C2CCC(N3CC(O)C3)CC2)c2ccccc12 (stereo partly shown)', '< 0.5 nM'),
  ('CSc1cc(C)[nH]c(=O)c1CNC(=O)c1c(C)n([C@H](C)C2CCN(CC(F)(F)F)CC2)c2cccc(Br)c12', '0.5 to 5 nM'),
  ('CSc1cc(C)[nH]c(=O)c1CNC(=O)c1c(C)n([C@H](C)C2CCN(CC(F)(F)F)CC2)c2cc(Br)ccc12', '< 0.5 nM'),
  ('CSc1cc(C)[nH]c(=O)c1CNC(=O)c1c(C)n([C@@H](C)C2CN(CC(F)(F)F)C2)c2ccccc12', '0.5 to 5 nM'),
  ('CSc1cc(C)[nH]c(=O)c1CNC(=O)c1c(C)n([C@H](C)C2CCN(CC(F)(F)F)CC2)c2cccc(Cl)c12', '< 0.5 nM'),
  ('CSc1cc(C)[nH]c(=O)c1CNC(=O)c1c(C)n([C@H](C)C2CCC(N3CC(C#N)C3)CC2)c2ccccc12 (single isomer, unassigned) [138 (isomer 2)]', '< 0.5 nM'),
  ('CSc1cc(C)[nH]c(=O)c1CNC(=O)c1c(C)n([C@H](C)C2CCNC[C@H]2F)c2ccccc12 (stereo partly shown)', '< 0.5 nM'),
  ('CSc1cc(C)[nH]c(=O)c1CNC(=O)c1c(C)n([C@H](C)C2CCC(O)CC2)c2nc(C)ccc12 (stereo partly shown)', '0.5 to 5 nM'),
  ('CSc1cc(C)[nH]c(=O)c1CNC(=O)c1c(C)n([C@H](C)C2CCN(C3(C)CC3)CC2)c2ncccc12', '< 0.5 nM'),
  ('CSc1cc(C)[nH]c(=O)c1CNC(=O)c1c(C)n([C@H](C)C2CCC(C)(O)CC2)c2ccccc12 (single isomer, unassigned) [22 (isomer 1)]', '< 0.5 nM'),
  ('CSc1cc(C)[nH]c(=O)c1CNC(=O)c1c(C)n([C@H](C)C2CCC(OC3CC3)CC2)c2ccccc12 (stereo partly shown)', '< 0.5 nM'),
  ('CSc1cc(C)[nH]c(=O)c1CNC(=O)c1c(C)n([C@H](C)C2CCN(CC(F)(F)F)CC2)c2ccccc12', '< 0.5 nM'),
  ('CSc1cc(C)[nH]c(=O)c1CNC(=O)c1c(C)n([C@H](C)C2CCC(OC(F)F)CC2)c2ccccc12 (single isomer, unassigned) [60 (isomer 1)]', '< 0.5 nM'),
  ('CSc1cc(C)[nH]c(=O)c1CNC(=O)c1c(C)n([C@H](C)C2CCC(N3CC(F)C3)CC2)c2ncccc12 (stereo partly shown)', '< 0.5 nM'),
  ('CSc1cc(C)[nH]c(=O)c1CNC(=O)c1c(C)n([C@H](C)C2CCC(N3CC(F)C3)CC2)c2ccccc12 (single isomer, unassigned) [24 (isomer 1)]', '< 0.5 nM'),
  ('COC1CC(N2CCC([C@@H](C)n3c(C)c(C(=O)NCc4c(SC)cc(C)[nH]c4=O)c4ccccc43)CC2)C1 (stereo partly shown)', '< 0.5 nM'),
  ('CSc1cc(C)[nH]c(=O)c1CNC(=O)c1c(C)n([C@H](C)C2CCN(CC(F)(F)F)CC2)c2cccc(C)c12', '0.5 to 5 nM'),
  ('CSc1cc(C)[nH]c(=O)c1CNC(=O)c1c(C)n([C@H](C)C2CCC(N3CC(F)C3)CC2)c2ncc(F)cc12 (single isomer, unassigned) [84 (isomer 1)]', '< 0.5 nM'),
  ('CSc1cc(C)[nH]c(=O)c1CNC(=O)c1c(C)n([C@H](C)C2CCC(OC3CN(C)C3)CC2)c2ncccc12 (single isomer, unassigned) [145 (isomer 2)]', '< 0.5 nM'),
  ('CSc1cc(C)[nH]c(=O)c1CNC(=O)c1c(C)n([C@H](C)C2CCN(C#N)CC2)c2ccccc12', '< 0.5 nM'),
  ('CSc1cc(C)[nH]c(=O)c1CNC(=O)c1c(C)n([C@H](C)C2COC2)c2ccccc12 (single isomer, unassigned) [14 (isomer 1)]', '< 0.5 nM'),
  ('CSc1cc(C)[nH]c(=O)c1CNC(=O)c1c(C)n([C@H](C)C2CCN(C3CC3)CC2)c2ccccc12', '< 0.5 nM');

----------
Catalogue of IC50 readings, one per entry.
Target: PRC2 containing wt EZH2 (Homo sapiens (Human))
Test: EZH2 biochemical assay (IC50), 3H-SAM incorporation into biotinylated H3 peptide
Settings: 30 pM PRC2 containing wt EZH2; 3-5 h pre-incubation; read-out: EZH2 (IC50)
readout_name: IC50

INSERT INTO measurements (compound, result) VALUES
  ('CSc1cc(C)[nH]c(=O)c1CNC(=O)c1c(C)n([C@H](C)C2CCC(N3CC(OC4CC4)C3)CC2)c2ncncc12 (single isomer, unassigned) [102 (isomer 2)]', '< 0.5 nM'),
  ('CSc1cc(C)[nH]c(=O)c1CNC(=O)c1c(C)n([C@H](C)C2CCN(CC(F)(F)F)CC2)c2cccc(C#N)c12', '> 5 nM'),
  ('CSc1cc(C)[nH]c(=O)c1CNC(=O)c1c(C)n([C@H](C)C2CCC(N3CC(C(F)(F)F)C3)CC2)c2ncccc12 (stereo partly drawn)', '< 0.5 nM');

----------
Test system: H3K27me3 mark in HeLa cells (EZH2)
Assay: H3K27me3 Alpha Hela Assay (AlphaLISA)
Format: cell-based
Settings: HeLa cell assay; Table 3 classes; read-out: EC50 Cellular Activity
pEC50: −log10 of the molar value.
Quick reference for pEC50 among some molecules
readout_name: pEC50

INSERT INTO measurements (molecule, measured_on, readout_name, result) VALUES
  ('Cc1cc(Cl)c(CNC(=O)c2c(C)n([C@H](C)C3OCC(NC4(C)COC4)CO3)c3ccccc23)c(=O)[nH]1 (single isomer, unassigned) [drawing 226]', 'H3K27me3 mark in HeLa cells (EZH2)', 'pEC50', '7.60 to 8.30'),
  ('CSc1cc(C)[nH]c(=O)c1CNC(=O)c1c(C)n([C@H](C)C2CCC(NC3(C)CCOC3)CC2)c2ccccc12 (single isomer, unassigned) [drawing 270]', 'H3K27me3 mark in HeLa cells (EZH2)', 'pEC50', '6.90 to 7.60'),
  ('Cc1cc(Cl)c(CNC(=O)c2c(C)n([C@H](C)C3OCC(N(C)C)CO3)c3ccccc23)c(=O)[nH]1 (single isomer, unassigned) [drawing 229]', 'H3K27me3 mark in HeLa cells (EZH2)', 'pEC50', '< 6.90'),
  ('CSc1cc(C)[nH]c(=O)c1CNC(=O)c1c(C)n([C@H](C)C2OCC(NC3(C)COC3)CO2)c2ccccc12 (single isomer, unassigned) [drawing 228]', 'H3K27me3 mark in HeLa cells (EZH2)', 'pEC50', '< 6.90'),
  ('COc1cc(C)[nH]c(=O)c1CNC(=O)c1c(C)n([C@H](C)C2CCC(NC3COC3)CC2)c2ccccc12 (single isomer, unassigned) [drawing 208]', 'H3K27me3 mark in HeLa cells (EZH2)', 'pEC50', '6.90 to 7.60'),
  ('Cc1cc(Cl)c(CNC(=O)c2c(C)n([C@H](C)C3CCC(NC4COC4)CC3)c3ccccc23)c(=O)[nH]1 (single isomer, unassigned) [drawing 212]', 'H3K27me3 mark in HeLa cells (EZH2)', 'pEC50', '6.90 to 7.60'),
  ('CSc1cc(C)[nH]c(=O)c1CNC(=O)c1c(C)n([C@H](C)C2OCC(N(C)C)CO2)c2ccccc12 (single isomer, unassigned) [drawing 231]', 'H3K27me3 mark in HeLa cells (EZH2)', 'pEC50', '< 6.90'),
  ('Cc1cc(C)c(CNC(=O)c2c(C)n([C@H](C)C3CCC(NC4COC4)CC3)c3ccccc23)c(=O)[nH]1 (single isomer, unassigned) [drawing 209]', 'H3K27me3 mark in HeLa cells (EZH2)', 'pEC50', '< 6.90'),
  ('CSc1cc(C)[nH]c(=O)c1CNC(=O)c1c(C)n([C@H](C)C2CCC(N3CC(F)C3)CC2)c2ccccc12 (single isomer, unassigned) [drawing 255]', 'H3K27me3 mark in HeLa cells (EZH2)', 'pEC50', '7.60 to 8.30'),
  ('COC1CN(C2CCC([C@@H](C)n3c(C)c(C(=O)NCc4c(SC)cc(C)[nH]c4=O)c4cccnc43)CC2)C1 (single isomer, unassigned) [drawing 260]', 'H3K27me3 mark in HeLa cells (EZH2)', 'pEC50', '< 6.90'),
  ('CCOC1CN(C2CCC([C@@H](C)n3c(C)c(C(=O)NCc4c(SC)cc(C)[nH]c4=O)c4cccnc43)CC2)C1 (single isomer, unassigned) [drawing 262]', 'H3K27me3 mark in HeLa cells (EZH2)', 'pEC50', '6.90 to 7.60');
